# measuredTarget: IRE1α (ERN1) (Homo sapiens, UniProt O75460)
# test: LanthaScreen Eu kinase binding assay, IRE1α
# runConditions: Conc. 16700 nM; duplicates; read-out: IRE1a Kinase Displacement(%)
quantityMeasured: inhibition at 16.7 µM (%)
Return type: number; implicit unit %.

Solved entries:
COc1ccc2c(c1)c(CCC(=O)O)c(C)n2C(=O)c1cc2ccccc2s1 63
COc1ccc2c(c1)c(CCC(=O)O)c(C)n2C(=O)c1ccccc1 98
COc1ccc2c(c1)c(CCC(=O)O)c(C)n2C(=O)c1ccc(Cl)cc1 63

Problem: What measured inhibition at 16.7 µM goes with Cc1c(CCC(=O)O)c2cc(Br)ccc2n1C(=O)c1ccccc1 ?
Solution: 94

* * *

# measuredTarget: dephosphorylated IRE1α (Homo sapiens)
# Construct: Human IRE1α kinase and RNase domain (residues 547–977) was subcloned into pLIB plasmid; His tag (with TEV cleavage site) (N, cleaved yes); made in house; host or cells: Sf9 insect cells, baculovirus (Bac-to-Bac)
# Sequence (O75460 547-977): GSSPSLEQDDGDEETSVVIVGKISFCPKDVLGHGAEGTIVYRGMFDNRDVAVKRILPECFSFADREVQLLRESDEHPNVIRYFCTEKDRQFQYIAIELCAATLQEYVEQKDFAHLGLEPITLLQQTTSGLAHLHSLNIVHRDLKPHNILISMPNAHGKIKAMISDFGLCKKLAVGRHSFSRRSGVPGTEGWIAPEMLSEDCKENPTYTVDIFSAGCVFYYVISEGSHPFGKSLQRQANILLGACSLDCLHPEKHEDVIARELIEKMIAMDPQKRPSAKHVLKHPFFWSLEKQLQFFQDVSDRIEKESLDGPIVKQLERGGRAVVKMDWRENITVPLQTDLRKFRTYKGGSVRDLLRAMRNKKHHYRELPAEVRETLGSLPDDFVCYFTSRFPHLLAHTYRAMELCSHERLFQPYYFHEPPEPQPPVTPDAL
# test: Isothermal titration calorimetry (ITC), incl. competitive ITC
# Format: binding
# runConditions: titrating 200 μM compound to 20 μM dephosphorylated IRE1α; read-out: KD (ITC)
quantityMeasured: Kd (nM)
Return type: number; implicit unit nM.

Problem: What measured Kd goes with Cc1c(CCC(=O)O)c2cc(Br)ccc2n1C(=O)c1ccccc1 ?
Solution: 1410

* * *

# measuredTarget: phosphorylated IRE1α (p-IRE1α) (Homo sapiens, UniProt O75460)
# Construct: Human IRE1α kinase and RNase domain (residues 547–977) was subcloned into pLIB plasmid; His tag (with TEV cleavage site) (N, cleaved yes); made in house; host or cells: Sf9 insect cells, baculovirus (Bac-to-Bac)
# Sequence (O75460 547-977): as above
# test: FRET-based IRE1α RNase activity assay, phosphorylated IRE1α
# Type: biochemical
# runConditions: FRET assay, RNase activity; mean (± SEM); read-out: p-IRE1α IC50
quantityMeasured: log10 IC50 (log10 of the value in nM)
Response schema: value (number) is log10 of IC50 in units of nM.

Solved entries:
structureNotation	log10 IC50
COc1ccc2c(c1)c(CCC(=O)O)c(C)n2C(=O)c1ccc(Cl)cc1	2.51
COc1ccc2c(c1)c(CCC(=O)O)c(C)n2C(=O)C1CC1	3.24
COc1ccc2c(c1)c(CCC(=O)O)c(C)n2C(=O)c1cccc(C#N)c1	1.60
COc1ccc2c(c1)c(CCC(=O)O)c(C)n2C(=O)c1ccc2c(c1)C(=O)c1ccccc1C2=O	2.79
COc1ccc(C(=O)n2c(C)c(CCC(=O)O)c3cc(OC)ccc32)cc1	2.30
Cc1c(CCC(=O)O)c2cc(Br)ccc2n1C(=O)c1ccccc1	0.97

Problem: What measured log10 IC50 goes with Cc1c(CCC(=O)O)c2cc(-c3ccccc3C#N)ccc2n1C(=O)c1ccccc1 ?
Solution: 4.45

Problem: What measured log10 IC50 goes with Cc1c(CCC(=O)O)c2ccccc2n1C(=O)c1ccccc1 ?
Solution: 3.02

* * *

# measuredTarget: dephosphorylated IRE1α (547–977) (Homo sapiens, UniProt O75460)
# Construct: Human IRE1α kinase and RNase domain (residues 547–977) was subcloned into pLIB plasmid; His tag (with TEV cleavage site) (N, cleaved yes); made in house; host or cells: Sf9 insect cells, baculovirus (Bac-to-Bac)
# test: FRET-based IRE1α RNase activity assay, dephosphorylated IRE1α
# Assay type: biochemical
# runConditions: FRET assay; dephosphorylated IRE1α; read-out: IRE1α IC50 (RNase activity)
quantityMeasured: pIC50
In textbook form, pIC50 equals minus log to base ten of the concentration in mol/L.

Problem: What measured pIC50 goes with COc1ccc2c(c1)c(CCC(=O)O)c(C)n2C(=O)c1cc2ccccc2s1 [IA10] ?
Solution: 5.74

Origin of measurements: paper PMC12475274
